Reported Inhibition by item:
- Tested on: Acinetobacter baumannii
- experimental.details: Antibacterial activity against Acinetobacter baumannii ATCC 19606 (CO-ADD:GN_034); MIC in CAMBH media using NBS plates, by Resazurin F(560/590)
- Format: functional
- measurement.parameters: Concentration 20 uM, ASSAY_TEST Inhibition of Bacterial Growth, detection method Resazurin, Fluorescence (ex560/em590), MEDIA CAMHB, plate type 384well, CORNING #3640, time 18 hr
measure: Inhibition

> print(dat)
                                    molecule  measurement
 1           O=C(/C=C/c1ccccc1Cl)c1ccc(O)cc1        0.76%
 2  N#CC1C(=O)NC(=O)C(C#N)C12CCCC(C(F)(F)F)C2 (stereo not given)        8.61%
 3            Cc1ccccc1NC(=O)C(=O)Nc1ccccc1C      -12.42%
 4  CC(=O)Nc1ccc(OC(=O)Oc2ccc(NC(C)=O)cc2)cc1       -4.35%
 5                COC(=O)c1c[n+]([O-])ccc1OC       -1.68%
 6                       CCOCc1cc(O)nc(SC)n1      -13.24%
 7  O=C(O)C(Cc1ccccc1N(CCO)CCO)N1C(=O)c2ccccc2C1=O (stereo not given)        6.12%
 8         O=C(Nc1ccc(F)cc1)OCCOc1ccc(Br)cc1        0.97%
 9          CCOC(=O)Cc1csc2nc(-c3ccccc3)nn12       -7.19%
10  COc1cc(-c2ccc(NC(=O)NC3CC3)c(OC)c2)ccc1NC(=O)NC1CC1       -9.96%
11  Cc1n[nH]c2c([N+](=O)[O-])c(=O)[nH]c(=O)n12      -12.95%
12    S=C1N(c2ccccc2)CN(C2CCCCC2)CN1c1ccccc1       12.71%
13               Cc1cccc(C)c1NC(=O)NCc1ccco1        7.13%
14  O=C1c2cc([N+](=O)[O-])ccc2-c2cc(Br)c(NC(=NO)C(F)(F)F)cc21      -25.99%
15         C=C1CC2(OC1=O)c1ccccc1CCc1ccccc12       -14.2%
16  CC1=CC2=C(C=O)C(=O)[C@](C)(O)[C@@H](O)C2=CO1       11.76%
17  c1ccc(-c2cc3ccccc3[nH]2)cc1 [2-PHENYL-1H-INDOLE]      -19.68%
18            Cc1nc(N)nc(Nc2ccc(C#N)cc2)c1Br       -2.28%
19                Nc1ccccc1-c1nc2cnccc2[nH]1      -12.24%
20         N#C/C(=C\c1ccc[nH]1)C(=O)c1ccccc1        7.21%
21  Clc1nc(Oc2ccccc2)nc(-c2cn(-c3ccccc3)c3ccccc23)n1        4.85%
22                  COc1ccccc1N=NNc1ccccc1OC       -0.02%
23                    Cc1cccnc1NC(=O)c1csnn1      -12.69%
24                    Cl/N=C1/C=CC=C/C1=N/Cl       -7.09%
25  N#Cc1cnn2ccn(C3OC(CO)C(O)C3O)c12 (stereo not given)       -3.63%

----------
Reported Inhibition by item:
- System: Candida albicans
- measurement.parameters: 20 µM
- Description: Antifungal activity against Candida albicans ATCC 90028 (CO-ADD:FG_001); MIC in YNB media using NBS plates, by OD630
Potency and affinity values are given separately.
measure: Inhibition (%)

> print(dat)
                                    compound  units  measurement
 1  c1ccc(-c2nc(-c3ccccn3)nc(-c3ccccn3)n2)nc1      %         2.65
 2  O=C1c2ccccc2C(=O)c2c1cccc2-n1nnc2ccccc21      %         0.12
 3       Cc1ccc(Nc2nc(Cl)nc3ncn(C)c23)c(C)c1      %         2.26
 4  COc1ccccc1N1C(=O)CC(Sc2ccccc2N)C1=O (stereo not drawn)      %         0.29
 5              CSc1nc(N)c(C(=O)NC2CCCCC2)s1      %         8.55
 6                NC(=O)c1cc(C(N)=O)nc(Cl)n1      %        -2.97
 7          CCOC(=O)c1nc(O)c2c3c(sc2n1)CCCC3      %           10
 8                  O=C(c1ccc(Cl)nc1)c1cccs1      %         2.35
 9  O=[N+]([O-])c1ccc2c3ccccc3[s+]([O-])c2c1 (stereo not drawn)      %         6.79
10             C=CCOc1c(CCC)cc(CCC)cc1C(N)=O      %         5.23
11                           Sc1cnnc2ccccc12      %         6.56
12                       c1ccn(CCc2ccncc2)c1      %         2.03
13           Nc1ccc(SCc2nc3cccc4c3n2CCC4)cc1      %        -0.32

----------
Reported Inhibition by item:
- System: Staphylococcus aureus
- experimental.details: Antibacterial activity against Staphylococcus aureus MRSA ATCC 43300 (CO-ADD:GP_020); MIC in CAMBH media using NBS plates, by Resazurin F(560/590)
- Assay type: functional
- measurement.parameters: Concentration 20 uM, ASSAY_TEST Inhibition of Bacterial Growth, detection method Resazurin, Fluorescence (ex560/em590), MEDIA CAMHB, plate type 384well, CORNING #3640, time 18 hr
measure: Inhibition (%)

> print(dat)
                                    compound  measurement
 1        NC(=O)c1cc2c3ccccc3ccn2c1-c1ccccc1         8.37
 2  O=C(Nc1cccc(-c2ccccc2)c1)N1CCN(C(=O)Nc2cccc(-c3ccccc3)c2)CC1        26.71
 3  CCc1nc(N)nc(N)c1-c1ccc(N(C)Cc2ccccc2)c([N+](=O)[O-])c1       -14.23
 4                         CSc1nc(O)cc(Cl)n1         -1.6
 5         O=C(Nc1ccc(C(=O)O)c(O)c1)c1ccccc1        -3.42
 6  CC1=CN2C(c3cccc([N+](=O)[O-])c3)=NON(c3ccc(C)cn3)C2C=C1 (stereo not drawn)        16.79
 7  O=C(Nc1cccc([N+](=O)[O-])c1)c1ccc2ccccc2c1O         0.95
 8  CCCCC[C@H](O)/C=C/[C@@H]1[C@@H](C/C=C\CCCC(=O)O)[C@@H](O)C[C@H]1O.NC(CO)(CO)CO        12.44
 9  COC(=O)C1(C(=O)OC)C2C(=O)C3C(C21)C3(C(=O)OC(C)(C)C)C(=O)OC(C)(C)C (stereo not drawn)         5.34
10  CC1(C)C2CCC(CN=C(N)CSS(=O)(=O)O)C1C2 (stereo not drawn)        18.41
11                        Cc1nnc(-n2cccc2)s1          4.2
12                   Oc1ccc2ccc3[nH]cnc3c2c1        14.46
13  CC(=O)n1cc(C2CC(=O)OC3=C2CC(=O)C(C)(C)C3)c2ccccc21 (stereo not drawn)        13.95
14  Cc1cc2cc3c(=O)[nH]c(=O)cc-3n(CC(O)C(O)C(O)CO)c2cc1C (stereo not drawn)        10.31
15                  CCCCCn1cnc2c(S)nc(N)nc21         4.88
16  O=C(O)C(Cc1c[nH]c2ccccc12)N1C(=O)c2ccccc2C1=O (stereo not drawn)         3.51
17                  Oc1ccc(/C=C\c2cnccn2)cc1         3.99
18  Nc1ccc(S(=O)(=O)NCC2CCCCO2)cc1 (stereo not drawn)        11.97
19           CC1=C(C(N)=O)S(=O)(=O)c2ccccc21         7.64
20  O=C(O)c1ccccc1C(=O)Nc1ccccc1[N+](=O)[O-]         3.12
21              CSc1nc(N)c(C(=O)NC2CCCCC2)s1        30.14
22          O=[N+]([O-])c1cc2cccnc2c2ncccc12        -17.5
23               CN(C)c1ncnc2c1ncn2-c1ccccc1        -6.98

The measured values listed here are drawn from ChEMBL document CHEMBL4296182.
